Items are presented alongside their recorded TGI.
- Tested on: UACC-257 melanoma
- method: NCI tumour cell line growth inhibition, 48 h
Form entry: value (µM) — number only.

Examples with answers:
INSERT INTO assay_data (compound, system_name, measured_quantity, assay_result) VALUES
  ('CCOC(=O)c1cc2/c(=C\c3ccc(N(C)C)cc3)c3ccccc3n2[n+]1C', 'UACC-257 melanoma', 'TGI', 11.8),
  ('O=c1cc(-c2cccc3c2Sc2ccccc2S3)oc(N2CCOCC2)c1', 'UACC-257 melanoma', 'TGI', 27.1),
  ('C=C(CCC/C(C)=C/C=C/[C@@H](C)CCCc1ccoc1)C[C@@H]1OC(=O)[C@H](C)[C@@H]1O', 'UACC-257 melanoma', 'TGI', 15.1),
  ('COc1ccc2c(=O)cc(C(Cl)(Cl)Cl)oc2c1', 'UACC-257 melanoma', 'TGI', 41.6),
  ('Cc1ccc(O)c(C2=CC(c3cccc(Cl)c3)SC(N)=N2)c1 (configuration not stated)', 'UACC-257 melanoma', 'TGI', 46.8);

Measured TGI (UACC-257 melanoma), entry `Cc1cc(/C=C/c2cc[n+](C)c3ccccc23)c(O)c2ncccc12` : 13.5

The measured TGI that Cc1ccc(NC(=O)CC2Sc3ccccc3NC2=O)c(C)c1 (configuration not stated) showed for UACC-257 melanoma is 39.7

Log: UACC-257 melanoma, compound CCOC(=O)N1CCC(=O)C(CNC23CC4CC(CC(C4)C2)C3)C1 (configuration not stated) , TGI = 42.4

Reading of TGI for O=C(CCN1CCN(c2ccccc2)CC1)N1CCc2c([nH]c3ccccc23)C1c1cccnc1 (configuration not stated) with UACC-257 melanoma: 31.5

---

- System: OVCAR-8 ovarian
- method: NCI tumour cell line growth inhibition, 48 h
# reported TGI; entries follow

// worked examples, TGI included
INSERT INTO measurements (compound, assay_result) VALUES
  ('C=C(CCC/C(C)=C/C=C/[C@@H](C)CCCc1ccoc1)C[C@@H]1OC(=O)[C@H](C)[C@@H]1O', '21.3 µM'),
  ('CC(=O)OCC1OC(Nn2c(=O)[nH]c3ccccc3c2=O)C(OC(C)=O)C(OC(C)=O)C1OC(C)=O (stereo unspecified)', '> 100 µM'),
  ('C/C(CC(=O)Nc1ccc(C)c(C)c1)=N\NC(N)=O', '> 100 µM'),
  ('COc1ccc(C2SCC(=O)N2NC(=O)c2ccc(NC(C)=O)cc2)c(OC)c1 (stereo unspecified)', '> 100 µM'),
  ('CN(C)C(c1ccccc1)C1COC2Cc3ccccc3C1O2 (stereo unspecified)', '> 100 µM');

What the record says about `O=C(COc1cc(O)c2c(=O)cc(-c3ccccc3)oc2c1)Nc1ccccc1C(F)(F)F` : TGI is 32.1 µM

What the record says about `N#CC(=N)c1ncn(-c2ccc(N)cc2)c1N` : TGI is > 100 µM

Record CC1=C(O)C(=O)C2C(=O)C1C1Cc3ccccc3C21 (stereo unspecified) . Reported TGI: > 100 µM

// `CC(C)([NH-])CO.CC(C)([NH-])CO.[Cl][Cd][Cl]` : TGI value = > 100 µM

Just so you know, measured TGI for `Oc1ccc(-c2nc3ccccc3s2)cc1CN(Cc1ccccn1)Cc1ccccn1` came out at 13.4 µM
